# key: entry, value: cell scattering score, MLP29, 0.037 nM
- Target system: native mouse MET on living mouse cells (mouse, UniProt P16056 25-1379)
- Assay info: cell-based or functional assay
Readout: cell scattering score, MLP29, 0.037 nM (score 0-4)

- chimeric llama-human IgG1 mAb 71D6 (antibody, V domains shown) VH: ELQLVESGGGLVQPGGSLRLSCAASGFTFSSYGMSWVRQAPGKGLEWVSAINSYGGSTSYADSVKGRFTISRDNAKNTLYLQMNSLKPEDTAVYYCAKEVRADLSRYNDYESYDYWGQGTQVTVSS VL: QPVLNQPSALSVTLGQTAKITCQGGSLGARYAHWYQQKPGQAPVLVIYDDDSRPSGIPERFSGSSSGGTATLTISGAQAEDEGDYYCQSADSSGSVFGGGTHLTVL: 3
- chimeric llama-human IgG1 mAb 71G3 (antibody, V domains shown) VH: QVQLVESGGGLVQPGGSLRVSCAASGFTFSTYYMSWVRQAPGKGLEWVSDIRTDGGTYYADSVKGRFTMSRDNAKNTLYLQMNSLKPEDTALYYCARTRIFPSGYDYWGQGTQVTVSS VL: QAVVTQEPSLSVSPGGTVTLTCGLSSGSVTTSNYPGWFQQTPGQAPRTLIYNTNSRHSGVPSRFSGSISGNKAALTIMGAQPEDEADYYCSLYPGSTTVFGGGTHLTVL: 1
- chimeric llama-human IgG1 mAb 76H10 (antibody, V domains shown) VH: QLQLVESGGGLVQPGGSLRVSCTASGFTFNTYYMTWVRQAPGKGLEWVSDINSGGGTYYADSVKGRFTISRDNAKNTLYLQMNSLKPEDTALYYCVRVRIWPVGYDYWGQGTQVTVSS VL: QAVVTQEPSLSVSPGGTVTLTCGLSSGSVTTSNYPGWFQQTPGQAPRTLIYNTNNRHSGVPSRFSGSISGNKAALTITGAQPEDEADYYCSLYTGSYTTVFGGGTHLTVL: 0
- chimeric llama-human IgG1 mAb 72F8 (antibody, V domains shown) VH: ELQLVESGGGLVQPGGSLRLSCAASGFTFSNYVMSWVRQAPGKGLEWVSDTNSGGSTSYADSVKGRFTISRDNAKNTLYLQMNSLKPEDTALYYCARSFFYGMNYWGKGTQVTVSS VL: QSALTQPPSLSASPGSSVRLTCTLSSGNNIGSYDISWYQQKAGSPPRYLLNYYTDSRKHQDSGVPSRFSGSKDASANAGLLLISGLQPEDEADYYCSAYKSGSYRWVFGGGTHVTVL: 0
- chimeric llama-human IgG1 mAb 71D4 (antibody, V domains shown) VH: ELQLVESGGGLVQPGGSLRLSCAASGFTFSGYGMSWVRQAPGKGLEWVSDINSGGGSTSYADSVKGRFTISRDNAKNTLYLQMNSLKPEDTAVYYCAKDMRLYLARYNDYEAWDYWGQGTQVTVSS VL: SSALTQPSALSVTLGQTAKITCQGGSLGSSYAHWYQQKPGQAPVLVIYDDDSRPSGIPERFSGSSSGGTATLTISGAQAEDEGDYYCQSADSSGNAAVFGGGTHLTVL: 0

These data points were gathered from patent US20210024639A1.
